Biological target: Gal(b1-4)GlcNAc(b1-3)Gal(b1-4)GlcNAc(b1-3)[Gal(b1-4)GlcNAc(b1-3)Gal(b1-4)GlcNAc(b1-6)]GalNAc
Assay: glycan array binding signal (z-score within array); higher = stronger binding
Conditions: glycan notation: IUPAC condensed, linker removed
The entries come from a sample that favours the strongest signals as a whole.
What glycan array binding signal (z-score) was measured for each of the following?
One number for each entry.

Some solved cases for reference:
[[record]]
binder = "FGF1 (Homo sapiens), P05230 (protein) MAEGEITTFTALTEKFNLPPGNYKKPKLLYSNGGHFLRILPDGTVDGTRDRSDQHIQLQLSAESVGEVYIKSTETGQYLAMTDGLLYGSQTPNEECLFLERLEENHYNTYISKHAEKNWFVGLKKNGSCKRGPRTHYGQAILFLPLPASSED"
reported_endpoint = "glycan array binding signal (z-score)"
result = 1.64

[[record]]
binder = "LSL-150 (Laetiporus sulphureus), Q7Z8V1 (protein) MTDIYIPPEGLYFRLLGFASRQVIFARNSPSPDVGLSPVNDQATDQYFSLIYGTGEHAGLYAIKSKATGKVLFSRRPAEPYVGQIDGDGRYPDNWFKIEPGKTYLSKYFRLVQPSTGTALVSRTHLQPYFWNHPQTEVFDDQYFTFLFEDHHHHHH"
reported_endpoint = "glycan array binding signal (z-score)"
result = 0.034


Kindly review the next binder as well.
[in] Recorded glycan array binding signal (z-score) for Gal 8 (Mus musculus), Q9JL15 (protein) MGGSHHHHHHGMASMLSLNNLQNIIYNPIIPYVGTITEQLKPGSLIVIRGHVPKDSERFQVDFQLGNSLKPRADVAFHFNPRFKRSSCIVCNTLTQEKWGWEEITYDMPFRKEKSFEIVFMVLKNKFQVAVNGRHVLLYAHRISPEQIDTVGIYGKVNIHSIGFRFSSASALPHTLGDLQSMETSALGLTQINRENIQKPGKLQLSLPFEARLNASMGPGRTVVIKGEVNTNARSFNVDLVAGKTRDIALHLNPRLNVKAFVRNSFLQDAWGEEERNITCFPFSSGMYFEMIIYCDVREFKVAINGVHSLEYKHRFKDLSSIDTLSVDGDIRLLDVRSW , please?
[out] -0.063
